Conditions: in n-butyl acetate, 333.15 K

[
  {
    "structure smiles": "C[C@H](CCC(=O)O)[C@H]1CC[C@H]2[C@@H]3[C@H](O)C[C@@H]4C[C@H](O)CC[C@]4(C)[C@H]3C[C@H](O)[C@]12C",
    "solubility (mole fraction)": 0.000765
  },
  {
    "structure smiles": "C[C@H](CCC(=O)O)[C@H]1CC[C@H]2[C@@H]3CC[C@@H]4C[C@H](O)CC[C@]4(C)[C@H]3C[C@H](O)[C@]12C",
    "solubility (mole fraction)": 0.00127
  }
]

----------
Conditions: in n-butanol, 303.15 K
measured parameter: solubility (mole fraction)

[
  {
    "structure smiles": "C[C@H](CCC(=O)O)[C@H]1CC[C@H]2[C@@H]3[C@H](O)C[C@@H]4C[C@H](O)CC[C@]4(C)[C@H]3C[C@H](O)[C@]12C",
    "measured parameter": "solubility (mole fraction)",
    "numeric readout": 0.0027
  },
  {
    "structure smiles": "C[C@H](CCC(=O)O)[C@H]1CC[C@H]2[C@@H]3CC[C@@H]4C[C@H](O)CC[C@]4(C)[C@H]3C[C@H](O)[C@]12C",
    "measured parameter": "solubility (mole fraction)",
    "numeric readout": 0.00189
  }
]

----------
Settings: in n-octanol, 333.15 K

[
  {
    "structure smiles": "C[C@H](CCC(=O)O)[C@H]1CC[C@H]2[C@@H]3[C@H](O)C[C@@H]4C[C@H](O)CC[C@]4(C)[C@H]3C[C@H](O)[C@]12C",
    "solubility (mole fraction)": 0.0242
  },
  {
    "structure smiles": "C[C@H](CCC(=O)O)[C@H]1CC[C@H]2[C@@H]3CC[C@@H]4C[C@H](O)CC[C@]4(C)[C@H]3C[C@H](O)[C@]12C",
    "solubility (mole fraction)": 0.0232
  }
]

----------
Conditions: in n-butanol, 323.15 K
Entries annotated with measured solubility (mole fraction)

[
  {
    "structure smiles": "C[C@H](CCC(=O)O)[C@H]1CC[C@H]2[C@@H]3CC[C@@H]4C[C@H](O)CC[C@]4(C)[C@H]3C[C@H](O)[C@]12C",
    "solubility (mole fraction)": 0.00275
  },
  {
    "structure smiles": "C[C@H](CCC(=O)O)[C@H]1CC[C@H]2[C@@H]3[C@H](O)C[C@@H]4C[C@H](O)CC[C@]4(C)[C@H]3C[C@H](O)[C@]12C",
    "solubility (mole fraction)": 0.00337
  }
]

----------
Entries annotated with measured solubility (mole fraction)
Settings: in n-hexanol, 283.15 K

[
  {
    "structure smiles": "C[C@H](CCC(=O)O)[C@H]1CC[C@H]2[C@@H]3CC[C@@H]4C[C@H](O)CC[C@]4(C)[C@H]3C[C@H](O)[C@]12C",
    "solubility (mole fraction)": 0.00773
  },
  {
    "structure smiles": "C[C@H](CCC(=O)O)[C@H]1CC[C@H]2[C@@H]3[C@H](O)C[C@@H]4C[C@H](O)CC[C@]4(C)[C@H]3C[C@H](O)[C@]12C",
    "solubility (mole fraction)": 0.0156
  }
]

----------
Entries annotated with measured solubility (mole fraction)
Details: in n-octanol, 283.15 K

[
  {
    "structure smiles": "C[C@H](CCC(=O)O)[C@H]1CC[C@H]2[C@@H]3CC[C@@H]4C[C@H](O)CC[C@]4(C)[C@H]3C[C@H](O)[C@]12C",
    "solubility (mole fraction)": 0.00898
  },
  {
    "structure smiles": "C[C@H](CCC(=O)O)[C@H]1CC[C@H]2[C@@H]3[C@H](O)C[C@@H]4C[C@H](O)CC[C@]4(C)[C@H]3C[C@H](O)[C@]12C",
    "solubility (mole fraction)": 0.0154
  }
]
